Here's a roundup of IC50 values tested on Histone deacetylase 4 (Homo sapiens), taken from various published works.

Please review the following examples before continuing.
INSERT INTO measurements (sample_smiles, assay_value) VALUES
  ('O=C(CCc1ccc(O)c(O)c1)Cc1ccccc1', '> 40 µM'),
  ('O=C(/C=C/c1ccc(O)c([N+](=O)[O-])c1)CCCCc1ccccc1', '> 40 µM'),
  ('O=C(CCCCCCC(=O)Nc1ccc(Cl)c(C(=O)Nc2ccc(NC(=O)c3cc(Cl)ccc3Cl)cc2)c1)NO', '> 10 µM'),
  ('COc1cccc(-c2nc3c(c(-c4cccc(OC)c4)n2)CCN(C(=O)CCCCCCC(=O)NO)C3)c1', '> 10 µM'),
  ('O=C(CCCCc1ccccc1)CCc1ccc(O)cc1', '> 40 µM');

Query: IC50 for O=C(/C=C/c1ccccc1)CCCCc1ccccc1 ?
Reply: > 40 µM

Query: What do we get for O=C(/C=C/c1ccc(O)c(F)c1)CCCCc1ccccc1 ?
Reply: > 40 µM

Query: What do we get for O=C(/C=C/c1cccc(O)c1)CCCCc1ccccc1 ?
Reply: > 40 µM
